- System: Gag-Pol polyprotein [588-1027]/[588-1147] (Human immunodeficiency virus 1)
- Experiment Notes: HIV-1 RT Assay
- Run Conditions: pH 8.2
Could you please mark 1 (yes) for values of IC50 below 200 nM and 0 (no) for values at or above it?

CNC(=O)c1[nH]c2ccc(Cl)cc2c1Sc1ccccc1; 1 (yes)
[O-][S+](Cc1[nH]c2ccc(Cl)cc2c1Sc1ccccc1)c1ccccc1 (configuration not stated); 1 (yes)
NC(=O)c1[nH]c2ccc(Cl)cc2c1Sc1ccccc1; 1 (yes)
CN(C)C(=O)c1[nH]c2ccccc2c1Sc1ccccc1; 0 (no)

Answer whether the compound CC(C)=CCN1Cc2cc(Cl)cc3[nH]c(=S)n(c23)C[C@@H]1C has IC50 strictly less than 200 nM
0 (no)

Answer whether the compound [O-][S+](Cc1[nH]c2ccccc2c1[S+]([O-])c1ccccc1)c1ccccc1 (configuration not stated) has IC50 strictly less than 200 nM
0 (no)

Answer whether the compound [O-][S+](Cc1[nH]c2ccccc2c1Sc1ccccc1)c1ccccc1 (configuration not stated) has IC50 strictly less than 200 nM
1 (yes)

Answer whether the compound CNC(=O)c1[nH]c2ccccc2c1Sc1ccccc1 has IC50 strictly less than 200 nM
0 (no)

Answer whether the compound COC(=O)c1[nH]c2ccc(Cl)cc2c1Sc1ccccc1 has IC50 strictly less than 200 nM
1 (yes)
